System Name: T1, mature myostatin (recombinant, dimeric) (mouse polyprotein used for in-house …, UniProt O08689 268-376)
T1 construct: also called GDF-8; recombinant myostatin
T1 sequence: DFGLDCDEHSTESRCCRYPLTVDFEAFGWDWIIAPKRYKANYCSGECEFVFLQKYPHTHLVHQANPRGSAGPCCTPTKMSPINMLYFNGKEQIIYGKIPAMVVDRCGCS
Test Protocol: BIAcore, low density myostatin surface, methods as in 4.3
Measured Parameter: Kd (nM)

# Binder, Measured Parameter, Units Text, Measured
data = [
    ("H2L2 N54Q & C91S (H2L2-N54Q-C91S) (antibody, human IgG1, kappa, V domains shown) VH: QVQLVQSGAEVKKPGASVKVSCKASGYSFTGYFMHWVRQAPGQGLEWMGNIYPYQGVSNYNQRFKARVTMTTDTSTSTAYMELRSLRSDDTAVYYCARRYYYGTGPADWYFDVWGQGTLVTVSS VL: DIQMTQSPSSLSASVGDRVTITCKASQDINSYLSWFQQKPGKAPKSLIYRANRLVDGVPSKFSGSGSGTDYTLTISSLQPEDFATYYCLQSDEFPLTFGQGTKLEIKR", "Kd", "nM", 33.3),
]
